- System: 945468-187-T-J3-PDC spheroids with HUVEC/MSC, viability;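 also: spheroids exposed to agents for 7 days before viability read; 100% = DMSO vehicle control viability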
- assay: Anticancer human tumor 945468-187-T-J3-PDC patient-derived rectal carcinoma cell line growth inhibition [PI3K]
- test.settings: second compound 0.316 µM; first compound 0.1 µM; hits give low values
Please go through the items and note down their viability, T/C.
Write the value in % as a bare number.

Memo: CC(C)NCC(C(=O)N1CCN(c2ncnc3c2C(C)CC3O)CC1)c1ccc(Cl)cc1 (stereo unspecified) + Cc1nc(NC(=O)N2CCCC2C(N)=O)sc1-c1ccnc(C(C)(C)C(F)(F)F)c1 , reported viability, T/C: 104

Memo: Cn1ncnc1[C@H]1c2n[nH]c(=O)c3cc(F)cc(c23)N[C@@H]1c1ccc(F)cc1 + COc1c(OCCCN2CCOCC2)ccc2c3n(c(=NC(=O)c4cnc(N)nc4)nc12)CCN3 , reported viability, T/C: 18.5

Memo: C[C@@H](NC(=O)c1ncnc(N)c1Cl)c1ncc(C(=O)Nc2cc(C(F)(F)F)c(Cl)cn2)s1 + Cc1nc(NC(=O)N2CCCC2C(N)=O)sc1-c1ccnc(C(C)(C)C(F)(F)F)c1 , reported viability, T/C: 98.6

Memo: Cn1ncc(Cl)c1-c1cc(C(=O)NC(CN)Cc2cccc(F)c2)sc1Cl (stereo unspecified) + CC(Nc1ccc2c(c1)OCCn1cc(N3C(=O)OCC3C(F)F)nc1-2)C(N)=O , reported viability, T/C: 87.8

Memo: Cn1nccc1Nc1nccc(-c2ccn(C(CO)c3ccc(Cl)c(F)c3)c(=O)c2)n1 (stereo unspecified) + Cc1nc(NC(=O)N2CCCC2C(N)=O)sc1-c1ccnc(C(C)(C)C(F)(F)F)c1 , reported viability, T/C: 114

Memo: CC(Cn1ccc(-c2ccc(C#N)c(Cl)c2)n1)NC(=O)c1cc(C(C)O)[nH]n1 (stereo unspecified) + CC(Nc1ccc2c(c1)OCCn1cc(N3C(=O)OCC3C(F)F)nc1-2)C(N)=O , reported viability, T/C: 107
